test: 14C assay with IPTG-induced recombinant E. coli cells (14CO2 capture from [14C]-carboxyl-labeled dicamba); details: IPTG-induced recombinant E. coli cells; [14C]-carboxyl-labeled dicamba; 14CO2 capture

molecule: 86 (protein, listed as Sphingopyxis alaskensis) MALGASVASREASAQMAKAPMRKIATEEAFATPELAKAWLEIARSEPNSSLDIPTGILSIFDNPRPGSNQDRFRRQLLDVDAERIRDMDEAGVDMQLLSVTIPGVQIFEPARAGELAVTTNDHLAAAIARRPTRFAGLACFAPHDPVQATREMERAVNALGLKGFIVNSHTQDLYLDDPRFAPVLEAAQSLDCPIYLHPRAPSNGMAAPFRDYSMGGSIWGFGVEAGTHAVRMILSGVFDRYPRLRIVLGHMGEALPFWMWRLDHMAARRAKDGRMKPLSLAPSEYFKRNFAVTTSGFESPDVLDLVIKVAGIENIMWAIDYPYESSRDAVTFIEGADLTASQRASIFHRNAVRHFRLS
Dicamba Decarboxylase Activity: Low
//
molecule: 48 (protein, listed as Amycolatopsis mediterranei) MASMKLYGLEEHFVTADVIEAWRRRDPGLAEPMMKWAVASDITPALLDVDGGRIAAMDDAGIDTTVLSLTTPGLQNLDAAEAVALQAPTNDLIAAAVRRHPGRFQGFATLATSAPAAAADELRRAVTELGLNGALVNANSRGRALDAPGFWDIYEAAEDLRAPVYLHPGVPVPAVTEAYYRGFGEPVNSMLATGAFGWHYDAGLTILRMIVAGVFDRFPGLQVILGHWGEVVLFYLDRVAAMDKLTALRRPIAEYFRSNIFITPGGISSHKYLRWSLETVGVERIMYASDYPFNTERAGSARRFLDTAPVDEAGRERIAYRNWEELIAGIRR
Dicamba Decarboxylase Activity: High
//
molecule: 2 (protein, listed as Serratia sp.) MAKIICLEEHTLDKALVMASMPAALEQAPFLSDWGKTVTDGNLPDRSRPQIEKNDLINIKGADIGRGRLDDMDVAGITMQVLSVGGFPHLISAAEGVDLNRAANDRLADAVNAHPDRFAAFATLPWAQPDSAEKELERAVKELGFKGALLNGRPSTHFLDHPDYDGLLARFNALGVPLYLHPGLPVRSVQQAYYGGFSDEVTARLSMFGWGWHHEAGIHLLRLILSGAFDKYPNLQVISGHWGEMLPFWLQRLDDSLPQAATGLRRTIAQTFKEQVYVTPSGMLTLPHFQFIYALLGAERIIFSVDYPYQTLDGVKAFIQSLPVPEEAKEAIAFRNAERLLGLTS
Dicamba Decarboxylase Activity: High

Where do the numbers come from? From patent US20140287419A1.
